All figures here come from patent US5340833A.

# SYSTEM TESTED: urokinase (Homo sapiens, UniProt P00749)
# Construct: human high molecular weight urokinase; purchased American Diagnostica, Greenwich, Conn
# EXPERIMENTAL DETAILS: Urokinase Indirect (Plasminogen-Linked) Assay
# Type: biochemical
# REPORTED CONDITIONS: Table 3 column 4, simple number, unit inferred; read-out: uPA Indirect (plasminogen-linked) IC50
pIC50: −log10 of the molar value. Where a name gives a salt, the structure may show the parent alone.
Entry flag: 1.0 if pIC50 reaches 6; 0.0 if it does not.

compound="Cl.N=C(N)c1cc2c(C#Cc3ccc4c(c3)OCO4)cccc2s1 [Compound 77, hydrochloride]" system_tested="urokinase (Homo sapiens, UniProt P00749)" answer_label=1.0
compound="N=C(N)c1ccc(/C=C/c2cc3ccc4sc(C(=N)N)cc4c3s2)cc1 [Compound 209, bis-hydrochloride]" system_tested="urokinase (Homo sapiens, UniProt P00749)" answer_label=1.0
compound="CC(C)C=Cc1cccc2sc(C(=N)N)cc12 [Compound 22, hydrochloride]" system_tested="urokinase (Homo sapiens, UniProt P00749)" answer_label=1.0
compound="Cl.N=C(N)c1cc2cc(Br)ccc2s1 [Compound 103, hydrochloride]" system_tested="urokinase (Homo sapiens, UniProt P00749)" answer_label=0.0
compound="CCCCc1cccc2sc(C(=N)N)cc12.Cl [Compound 10, hydrochloride]" system_tested="urokinase (Homo sapiens, UniProt P00749)" answer_label=1.0

# ---- query compound ----
Does C=Cc1ccc2sc(C(=N)N)cc2c1.Cl [Compound 114, hydrochloride] have a reported pIC50 of at least 6?
0.0
